- assay_details: AUC (infinity) in male Wistar rat at 10 mg/kg, po
- Type: ADME, organism-based
- Design: time infinity, dose 10 mg/kg, route oral
- setup_conditions: plasma
readout_label: AUC(0-inf) (ng·h/mL)

I = Cc1nc(C#Cc2ccnc(Cl)c2)c(C)n1-c1ccc(OC(F)(F)F)cc1
II = Cc1nc(C#Cc2ccnc(Cl)c2)c(C)n1-c1ccc(F)cc1
Q. I'm curious, which of these has a smaller AUC(0-inf) number: I or II ? Indicate your choice by writing its label.
A. II

###

- assay_details: AUC (infinity) in male Wistar rat at 7 mg/kg, po
- Format: ADME, organism-based
- Design: time infinity, dose 7 mg/kg, route oral
- setup_conditions: plasma
readout_label: AUC(0-inf) (ng·h/mL)

A = Cc1cc(C#Cc2cn(-c3ccc(F)cc3)c(C)n2)ccn1
B = C(#Cc1ncn2c1COc1ccccc1-2)c1ccccc1
Q. Pick the one with the larger AUC(0-inf): A vs B Refer to your chosen item by its label in the answer.
A. A

###

- assay_details: Volume of distribution at steady state cynomolgus monkey at 1 mg/kg, iv
- Format: ADME, organism-based, Macaca fascicularis
- Parameters: dose 1 mg/kg, route intravenous
- setup_conditions: in vivo, read-out: Vdss
readout_label: Vd (L/kg)
Express it in L/kg; write the number only.

# Vd (molecule: "Cc1nc(C#Cc2ccnc(Cl)c2)c(C)n1-c1ccc(F)cc1" ) is 5.1

###

- assay_details: Cmax in male Wistar rat at 7 mg/kg, po
- Format: ADME, organism-based
- Set-up: dose 7 mg/kg, route oral
- setup_conditions: in vivo
readout_label: Cmax (ng/mL)

A = C(#Cc1ncn2c1COc1ccccc1-2)c1ccccc1
B = Cc1cc(C#Cc2cn(-c3ccc(F)cc3)c(C)n2)ccn1
Q. Could you check which of A and B has a smaller value for Cmax? In your reply, give the label of the chosen option.
A. A
(A: 158 ng/mL, B: 1660 ng/mL)

###

- assay_details: Tmax in male Wistar rat at 7 mg/kg, po
- Format: ADME, organism-based
- Design: dose 7 mg/kg, route oral
- setup_conditions: in vivo
readout_label: Tmax (h)

1 = C(#Cc1ncn2c1COc1ccccc1-2)c1ccccc1
2 = Cc1cc(C#Cc2cn(-c3ccc(F)cc3)c(C)n2)ccn1
Q. When their Tmax values are compared, which is larger, 1 or 2 ? Kindly state the label of the option you pick.
A. 1
(1: 2.3 h, 2: 1.1 h)

###

- assay_details: Volume of distribution at steady state in male Wistar rat at 1 mg/kg, iv
- Type: ADME, organism-based
- Parameters: dose 1 mg/kg, route intravenous
- setup_conditions: male, Wistar, in vivo, read-out: Vdss
readout_label: Vd (L/kg)
Please give a number only; it is taken to be in L/kg.

Notebook: "Cc1nc(C#Cc2ccnc(Cl)c2)c(C)n1-c1ccc(F)cc1" , Vd read as 4

###

- assay_details: Volume of distribution at steady state in male Wistar rat at 2 mg/kg, iv
- Format: ADME, organism-based
- Parameters: dose 2 mg/kg, route intravenous
- setup_conditions: in vivo, read-out: Vdss
readout_label: Vd (L/kg)

a = Cc1nc(C#Cc2ccnc(Cl)c2)c(C)n1-c1ccc(OC(F)(F)F)cc1
b = Cc1cc(C#Cc2cn(-c3ccc(F)cc3)c(C)n2)ccn1
Q. Kindly identify which of a and b has the larger recorded Vd value. Please indicate the selected item by its label.
A. a

Data provenance is ChEMBL document CHEMBL3407448.
